Molecular target: T1, recombinant canine β NGF (canine, UniProt Q29074 110-229 (pig entry))
T1 construct: also called canine NGF
T1 chain: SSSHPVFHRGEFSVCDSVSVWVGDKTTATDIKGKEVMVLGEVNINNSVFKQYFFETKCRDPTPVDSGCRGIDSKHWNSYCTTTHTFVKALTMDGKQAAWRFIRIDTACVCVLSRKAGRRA
Test: SPR (Biacore), mAb captured on goat anti-mouse IgG Fc, canine NGF injected; Average
Quantity: Kd

Binder	Experimental result
PR-1254982 (antibody, mouse IgG1, V domains shown, also called 3F7; ML130-3F7.4A8) VH: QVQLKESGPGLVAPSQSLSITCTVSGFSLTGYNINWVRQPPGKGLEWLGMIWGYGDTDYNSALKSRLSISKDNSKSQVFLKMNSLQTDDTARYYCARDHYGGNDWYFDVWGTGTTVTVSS VL: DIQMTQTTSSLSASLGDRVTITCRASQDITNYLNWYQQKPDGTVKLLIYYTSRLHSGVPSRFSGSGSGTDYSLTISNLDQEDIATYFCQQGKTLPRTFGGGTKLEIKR	< 0.0001 nM

Next up:
// Kd lookup, binder = PR-1254980 (antibody, mouse IgG1, V domains shown, also called 23F1; ML129-23F1.4G3) VH: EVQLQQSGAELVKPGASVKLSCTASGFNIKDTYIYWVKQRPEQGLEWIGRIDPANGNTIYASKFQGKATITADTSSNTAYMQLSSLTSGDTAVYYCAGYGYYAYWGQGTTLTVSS VL: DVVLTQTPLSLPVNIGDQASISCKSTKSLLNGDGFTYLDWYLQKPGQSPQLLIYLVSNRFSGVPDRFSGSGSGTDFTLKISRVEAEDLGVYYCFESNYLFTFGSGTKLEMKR , result: < 0.0231 nM
